Listed here are compounds together with their documented growth.
- Test system: 786-0 renal
- test_name: NCI-60 one-dose screen, 48 h (100 = growth as untreated, 0 = no growth, -100 = all killed)
- stated_conditions: 10 µM unless noted
This is part of a sample that, as a whole, favours compounds with a hit. Of some 83,000 tested, about 20% had one in any assay.
Just the number in %, nothing appended.

Examples with answers:
{"compound": "C[C@H]1c2[nH]c3ccccc3c2C[C@H]2C(=O)N(CCCCCCC(=O)NO)CC(=O)N21", "value_kind": "growth", "measured_result": 92}
{"compound": "COC(=O)c1[nH]nc2c1C1(C(=O)c3cccc4cccc1c34)C(C#N)=C(N)O2 (stereo not given)", "value_kind": "growth", "measured_result": 99.5}
{"compound": "N#Cc1c(-c2cccs2)cc(-c2cnccn2)nc1SCC(=O)Nc1ccc(Br)cc1", "value_kind": "growth", "measured_result": 80.9}
{"compound": "O=C(Cn1cc(-c2ccccc2)nn1)Nc1nc(-c2ccc(Cl)cc2)cs1", "value_kind": "growth", "measured_result": 88.6}

Let's switch to this compound now.
Notebook: COc1ccc([C@H]2c3[nH]c4ccccc4c3C[C@H]3C(=O)N(C4CCN(Cc5c(Cl)cccc5Cl)CC4)CC(=O)N23)c(OC)c1 , growth read as 101

----------
Listed here are compounds together with their documented growth.
- System: OVCAR-3 ovarian
- test_name: NCI-60 one-dose screen, 48 h (100 = growth as untreated, 0 = no growth, -100 = all killed)
- stated_conditions: 10 µM unless noted
This is part of a sample that, as a whole, favours compounds with a hit. Of some 83,000 tested, about 20% had one in any assay.
Just the number in %, nothing appended.

Examples with answers:
{"compound": "O=C1[C@H]2Cc3c([nH]c4ccccc34)[C@@H](c3ccc(Br)cc3)N2C(=O)CN1C1CCN(CC2CCCCC2)CC1", "unit_info": "%", "measured_result": -90}
{"compound": "C#CC(=O)N(c1ccc(OC)cc1OC)C(C(=O)NCC(=O)OCC)c1cccs1 (stereo not drawn)", "unit_info": "%", "measured_result": -58.9}
{"compound": "O=C(NNc1nc2cc(F)cc(F)c2n2cccc12)c1cnccn1", "unit_info": "%", "measured_result": 30.2}
{"compound": "CC1(C)CC[C@]2(CN)CC[C@]3(C)C(=CC[C@@H]4[C@@]5(C)CCCNC(C)(C)[C@@H]5CC[C@]43C)[C@H]2C1", "unit_info": "%", "measured_result": 106}
{"compound": "Fc1ccc(-c2cc3nc(C(Cl)Cl)nc(-c4ccc(F)cc4)n3n2)cc1", "unit_info": "%", "measured_result": -31.7}

Notebook: C=C(C)[C@@H]1CC[C@]2(COP(=O)(OCC)OCC)CC[C@]3(C)[C@H](CC[C@@H]4[C@@]5(C)CCCNC(C)(C)[C@@H]5CC[C@]43C)[C@@H]12 , growth read as 54

Notebook: NS(=O)(=O)c1ccc(Nc2nc(Nc3ccccc3)nc3nnc(SCC(=O)NC4CCCCC4)n23)cc1 , growth read as 119

Notebook: COc1cc(-c2nc(-c3ccccc3)[nH]c2-c2ccnc(NCCCNS(=O)(=O)c3cccc(F)c3)n2)ccc1Cl , growth read as 40.7

----------
- Tested on: T-47D breast
- test_name: NCI-60 one-dose screen, 48 h (100 = growth as untreated, 0 = no growth, -100 = all killed)
- stated_conditions: 10 µM unless noted
- Protocol: Growth inhibition of the T-47D human tumor cell line is measured as a screen for anti-cancer activity. Cells are grown in 96 well plates and exposed to the test compound for 48 hours. Compounds are tested at a single concentration, which is 10^-5 M for most compounds. The reported endpoint is percent growth (GI% or GIPRCNT), where numbers from 0 - 100% represent growth inhibition, and numbers from -100% - 0 represent cell death. For example, a value of 40 represents 60% growth inhibition. […]
The panel holds about 83,000 compounds, 20% with a hit somewhere; the sample as a whole holds those more often.
growth under 40% gets TRUE, anything at or over 40% gets FALSE.

# example entries with known answers
{"molecule": "CN1CCN(Cc2ccc(NC(=O)c3cncc(C#Cc4cnc5ccc(OCC6(C)COC6)nn45)c3)cc2C(F)(F)F)CC1", "label": "TRUE"}
{"molecule": "O=C(NNc1nc2cc(F)ccc2n2cccc12)c1ccncn1", "label": "TRUE"}
{"molecule": "COc1cccc(N2CCN(c3ncnc4c3[nH]c3ccc(F)cc34)C[C@H]2C)c1", "label": "TRUE"}
{"molecule": "COc1cc(-c2nn(C(C)(C)C)cc2-c2ccnc(NCCCNS(=O)(=O)c3ccc(C)cc3)n2)ccc1Cl", "label": "FALSE"}

Given the entry COc1c(N2CC3CCCNC3C2)c(F)cc2c(=O)c(C(=O)N/N=C/c3ccc4c(c3)OCO4)cn(C3CC3)c12 (stereo not drawn) , would its reported growth be below 40%?
FALSE

Given the entry CCCCCc1ccc(S(=O)(=O)Nc2cccc(-c3csc(NC(=O)CNCCN(C)C)n3)c2)cc1 , would its reported growth be below 40%?
FALSE

Given the entry Cc1cc2ncc(-c3cc4ccccc4c(N4CCN(C)CC4)n3)nc2cc1C , would its reported growth be below 40%?
TRUE

Given the entry CN1CCN(c2ccc(/C=N/Nc3nc4ccccc4c(=O)n3-c3ccccc3)cc2)CC1 , would its reported growth be below 40%?
FALSE

Given the entry O=S(=O)(Nc1ccc2c(c1)OCO2)c1ccc(-c2cnc(C3CC3)o2)cc1 , would its reported growth be below 40%?
TRUE

----------
- Tested on: SF-539 CNS
- test_name: NCI-60 one-dose screen, 48 h
- stated_conditions: 10 µM unless noted
The panel holds about 83,000 compounds, 20% with a hit somewhere; the sample as a whole holds those more often. The source made the active and inactive calls. Rule for the calls: active = growth percent below 10; inactive = the rest.
Valid outcomes are listed here; reply with one: active, inactive

{"molecule": "CC(=O)c1ccc(Nc2nc(SCC(C)C)nc(-c3ccc(F)cc3)c2C#N)cc1", "label": "inactive"}

# outcome recorded in this test, key = Cc1nn(-c2ccccc2)c2ncnc(N/N=C/c3ccccc3)c12
inactive

# outcome recorded in this test, key = Nc1nc(-c2cccc([N+](=O)[O-])c2)c(N=Nc2ccc(Br)cc2)s1
active

# outcome recorded in this test, key = Nc1nc(Nc2ccccc2SSc2ccccc2Nc2nc(N)nc(-c3ccc4ccccc4c3)n2)nc(-c2ccc3ccccc3c2)n1
inactive

# outcome recorded in this test, key = O=C(O)c1cn(C2CC2)c2cc(N3CCN(C(=O)CN4C(=O)CSC4=O)CC3)c(F)cc2c1=O
inactive

# outcome recorded in this test, key = NS(=O)(=O)c1ccc(-n2cc(CN3CCNCC3)nn2)cc1
inactive

# outcome recorded in this test, key = Cc1ccc(-n2cc(/C=N/NC(=O)c3nc(N)n[nH]3)c(-c3ccc(S(C)(=O)=O)cc3)n2)cc1
inactive

# outcome recorded in this test, key = CC1=NC2=NC(=O)/C(=C3/N=C(C)C=C(c4ccccc4)N3N)NN2C(c2ccccc2)=C1
inactive

# outcome recorded in this test, key = Cc1ccc2c(c1)C(=O)/C(=C/c1cccc(F)c1)S2
inactive

----------
- Test system: U251 CNS
- test_name: NCI-60 one-dose screen, 48 h (100 = growth as untreated, 0 = no growth, -100 = all killed)
- stated_conditions: 10 µM unless noted
About 83,000 compounds went through this panel and 20% of them were active in at least one assay; those are over-represented in the sample as a whole.
Mark Condition met for reported growth of 90% or greater; mark Condition not met for anything smaller.

{"compound": "NC(=O)c1c(NC(=O)c2ccccc2C(F)(F)F)sc2c1CCC(=O)C2", "label": "Condition not met"}

Reported growth at or above 90%? COc1ccccc1C(=O)Nc1cccc2c1C(=O)C(=O)C=C2
Condition met

Reported growth at or above 90%? CC1(C)CC[C@]2(C(=O)N3CCOCC3)CC[C@]3(C)C(=CC[C@@H]4[C@@]5(C)C/C(=C/c6ccco6)C(=O)C(C)(C)[C@@H]5CC[C@]43C)[C@@H]2C1
Condition met

Reported growth at or above 90%? COc1cc(-c2nc(-c3ccccc3)[nH]c2-c2ccnc(NCCCNS(=O)(=O)c3cccc(F)c3)n2)ccc1Cl
Condition not met

Reported growth at or above 90%? CCC1=Cc2cc(OC)ccc2OC12C=Cc1cc(OC)ccc1O2 (stereo not drawn)
Condition not met

Reported growth at or above 90%? CC(=O)c1nnn(-c2c(C(=O)n3nc(C)cc3C)sc(=S)n2-c2ccccc2)c1C
Condition met

----------
- Test system: ACHN renal
- test_name: NCI-60 one-dose screen, 48 h (100 = growth as untreated, 0 = no growth, -100 = all killed)
- stated_conditions: 10 µM unless noted
The panel holds about 83,000 compounds, 20% with a hit somewhere; the sample as a whole holds those more often.
growth under 40% gets true (1), anything at or over 40% gets false (0).

{"compound": "CN(C)CCNC(=O)c1ccc(-c2nc3ccc4[nH]ncc4c3c3c2CCC3)cc1", "label": "true (1)"}

Given the entry CS(=O)(=O)Nc1cc(-c2ccc3ncc(C#N)c(NCc4ccccc4O)c3c2)cnc1Cl , would its reported growth be below 40%?
true (1)

Given the entry O=S(=O)(NCCNc1nccc(-n2cnc3ccccc32)n1)c1ccc(C(F)(F)F)cc1 , would its reported growth be below 40%?
false (0)
